Listed next: entries and their corresponding inhibition.
- assay_system: Ribosomal protein S6 kinase alpha-6 (Homo sapiens) (UniProt Q9UK32);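 note: each value is a mean inhibition of RSK4 from a GSK PKIS panel screen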
- Sequence (Q9UK32 whole entry): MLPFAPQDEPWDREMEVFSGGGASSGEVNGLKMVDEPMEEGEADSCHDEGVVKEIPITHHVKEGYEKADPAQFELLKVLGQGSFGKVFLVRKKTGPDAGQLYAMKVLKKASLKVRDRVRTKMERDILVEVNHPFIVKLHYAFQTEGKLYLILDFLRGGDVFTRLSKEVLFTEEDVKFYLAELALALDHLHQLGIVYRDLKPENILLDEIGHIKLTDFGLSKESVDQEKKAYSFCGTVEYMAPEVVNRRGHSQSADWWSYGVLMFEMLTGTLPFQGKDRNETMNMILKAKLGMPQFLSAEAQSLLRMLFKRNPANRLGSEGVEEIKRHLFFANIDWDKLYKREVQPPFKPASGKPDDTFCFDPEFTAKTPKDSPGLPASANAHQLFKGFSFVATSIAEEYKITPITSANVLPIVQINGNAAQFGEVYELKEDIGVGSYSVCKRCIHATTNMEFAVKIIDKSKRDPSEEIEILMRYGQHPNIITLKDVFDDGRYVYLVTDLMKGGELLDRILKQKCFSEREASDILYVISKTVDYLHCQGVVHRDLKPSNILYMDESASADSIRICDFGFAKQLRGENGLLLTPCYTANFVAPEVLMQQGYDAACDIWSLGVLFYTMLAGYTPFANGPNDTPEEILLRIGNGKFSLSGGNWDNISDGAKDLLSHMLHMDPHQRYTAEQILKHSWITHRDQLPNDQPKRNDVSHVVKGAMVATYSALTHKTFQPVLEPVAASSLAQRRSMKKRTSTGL
- conditions_used: at 1 µM
measured_parameter: inhibition (%)

• COc1cc2ncnc(Nc3ccc(C)c(O)c3)c2cc1OC = 3.03
• Nc1ccc(C#Cc2cncnc2Nc2ccc(OCc3cccc(F)c3)c(Cl)c2)cc1 = 0.51
• CN1CCN(C(=O)c2ccc(NC(=O)Nc3ccc(N(C)c4ccnc(Nc5ccc(CS(C)(=O)=O)cc5)n4)cc3)cc2)CC1 = 5.11

* * *

Listed next: entries and their corresponding inhibition.
- assay_system: Platelet-derived growth factor receptor alpha (Homo sapiens) (UniProt P16234);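 note: values are mean percent inhibition of PDGFRA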
- Sequence (P16234 whole entry): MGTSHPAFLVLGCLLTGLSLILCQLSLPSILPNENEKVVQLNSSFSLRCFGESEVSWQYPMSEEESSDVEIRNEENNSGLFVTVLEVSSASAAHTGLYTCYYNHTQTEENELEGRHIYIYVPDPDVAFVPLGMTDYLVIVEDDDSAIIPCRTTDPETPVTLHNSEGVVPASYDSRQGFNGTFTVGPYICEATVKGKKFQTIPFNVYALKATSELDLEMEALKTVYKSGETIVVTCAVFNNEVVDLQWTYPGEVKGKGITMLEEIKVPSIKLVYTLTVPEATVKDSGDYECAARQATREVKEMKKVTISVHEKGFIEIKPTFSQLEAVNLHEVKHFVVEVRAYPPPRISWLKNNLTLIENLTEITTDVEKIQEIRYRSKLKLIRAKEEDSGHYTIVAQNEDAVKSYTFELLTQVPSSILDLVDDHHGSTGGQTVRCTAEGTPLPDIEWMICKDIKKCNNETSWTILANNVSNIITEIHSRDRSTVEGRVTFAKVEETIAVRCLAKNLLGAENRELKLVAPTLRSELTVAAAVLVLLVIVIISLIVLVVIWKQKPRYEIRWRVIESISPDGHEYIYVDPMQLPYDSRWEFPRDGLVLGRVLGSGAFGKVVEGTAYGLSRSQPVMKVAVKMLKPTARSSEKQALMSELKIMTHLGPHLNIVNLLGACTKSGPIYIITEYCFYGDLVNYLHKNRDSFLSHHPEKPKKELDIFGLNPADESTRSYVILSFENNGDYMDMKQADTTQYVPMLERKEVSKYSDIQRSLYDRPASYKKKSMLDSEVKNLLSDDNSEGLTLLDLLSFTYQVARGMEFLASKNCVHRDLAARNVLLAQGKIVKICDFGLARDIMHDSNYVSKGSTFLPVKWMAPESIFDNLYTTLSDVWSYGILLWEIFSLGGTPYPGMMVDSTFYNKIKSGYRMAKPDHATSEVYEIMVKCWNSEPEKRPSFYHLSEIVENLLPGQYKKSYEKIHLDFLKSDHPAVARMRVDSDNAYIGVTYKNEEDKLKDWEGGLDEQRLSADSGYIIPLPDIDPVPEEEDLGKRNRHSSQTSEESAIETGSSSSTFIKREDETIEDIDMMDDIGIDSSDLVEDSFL
- conditions_used: at 1 µM
measured_parameter: inhibition (%)

* NS(=O)(=O)c1cccc(Nc2cc(-c3ccc(F)cc3)n[nH]2)c1 | 36.1
* CN(C)CCCn1c(-c2nonc2N)nc2cnccc21 | 8.22
* CN(c1ccc(NC(=O)Nc2ccc(OC(F)(F)F)cc2)cc1)c1ccnc(Nc2cccc(S(N)(=O)=O)c2)n1 | 86.7
* COc1ccc2ncnc(Nc3ccc(OCc4ccccc4)cc3)c2c1 | 12.2
